Target: rNPFF2 (Rattus norvegicus, UniProt Q9EQD2)
Construct: expressed in transfected cells
Sequence (Q9EQD2 whole entry): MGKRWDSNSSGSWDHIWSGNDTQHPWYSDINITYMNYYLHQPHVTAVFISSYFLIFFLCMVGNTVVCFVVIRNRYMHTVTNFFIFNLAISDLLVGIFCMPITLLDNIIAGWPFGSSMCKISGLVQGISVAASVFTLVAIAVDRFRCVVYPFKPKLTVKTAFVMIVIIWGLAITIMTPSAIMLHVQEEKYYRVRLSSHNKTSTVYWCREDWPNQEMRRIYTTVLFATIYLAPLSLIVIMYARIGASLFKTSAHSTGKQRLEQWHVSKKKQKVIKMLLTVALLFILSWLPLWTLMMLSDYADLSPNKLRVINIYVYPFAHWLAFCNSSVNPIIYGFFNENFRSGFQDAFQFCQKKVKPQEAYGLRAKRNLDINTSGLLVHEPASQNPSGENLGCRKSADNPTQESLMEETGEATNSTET
Assay: Functional assay (agonist potency, intrinsic activity) at cloned rat NPFF2 receptor
Assay type: cell-based
Conditions: percent of maximum response elicited by neuropeptide FF; rat NPFF2
Protocol: Intrinsic activity of a compound is measured as the percent of maximum response.
parameter measured: rNPFF2 IA (intrinsic activity) (% NPFF)
The reply should contain only the number, in % NPFF.

Can you look up the measured rNPFF2 IA (intrinsic activity) of Cc1cc2nc(NC(=N)N)nc(C)c2cc1C for me?
56

Try this compound next: CCC(C)c1ccc2nc(NC(=N)N)nc(C)c2c1 (stereo not drawn)
92

Try this compound next: Cc1ccc2nc(NC(=N)N)nc(C)c2c1
24

Ref: patent US20030139431A1
